- SYSTEM TESTED: T1, PKC-δ (purified isoform) (Homo sapiens (Human), UniProt Q05655 1-676)
- T1 construct: also called PKC-delta; PKCdelta
- T1 sequence (Q05655 whole entry, stated change not applied, canonical isoform): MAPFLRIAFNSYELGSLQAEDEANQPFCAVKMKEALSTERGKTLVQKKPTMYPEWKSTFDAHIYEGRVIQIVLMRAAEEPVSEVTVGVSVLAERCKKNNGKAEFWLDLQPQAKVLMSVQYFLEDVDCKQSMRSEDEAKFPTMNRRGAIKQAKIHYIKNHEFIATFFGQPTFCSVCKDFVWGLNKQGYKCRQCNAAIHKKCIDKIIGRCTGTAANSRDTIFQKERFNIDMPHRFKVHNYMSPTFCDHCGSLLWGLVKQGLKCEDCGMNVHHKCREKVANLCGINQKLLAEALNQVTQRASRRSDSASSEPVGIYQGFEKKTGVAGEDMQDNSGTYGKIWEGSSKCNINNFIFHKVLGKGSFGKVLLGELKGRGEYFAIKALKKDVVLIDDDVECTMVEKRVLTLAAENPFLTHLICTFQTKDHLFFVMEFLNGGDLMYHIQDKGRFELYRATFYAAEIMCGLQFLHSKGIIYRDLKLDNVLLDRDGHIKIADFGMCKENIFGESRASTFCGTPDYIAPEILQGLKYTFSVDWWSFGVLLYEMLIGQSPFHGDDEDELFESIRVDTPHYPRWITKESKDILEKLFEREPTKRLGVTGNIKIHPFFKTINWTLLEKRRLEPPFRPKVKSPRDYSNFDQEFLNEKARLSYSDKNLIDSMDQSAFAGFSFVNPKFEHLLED
- PROCEDURE TEXT: competitive ELISA on purified PKC-δ vs anti-PKC-δ Ab; PRE 100 µM
Kindly state binding capacity (%) for each of the entries shown.
Give your result in % as a bare value.

Task: Given the entry Ac-RDAQNLI-NH2 (Synthetic peptide; also called peptide PRE 13; Ac-RDAQNLI-NH2) [PRE 13] , report its measured binding capacity (%).
Output: 0.79

Task: Can you share its binding capacity (%)? I mean this binder: Ac-KDAQNLI-NH2 (Synthetic peptide; also called peptide PRE 12; Ac-KDAQNLI-NH2) [PRE 12]
Output: 1.02

Task: Item under review: ILEDKGGDAQNLIGISI (Synthetic peptide; termini given free; also called peptide PRE 8) [PRE 8] . Reported binding capacity (%)?
Output: 3.38

Task: Can you look up the measured binding capacity (%) of Ac-KDANQLIGISI-NH2 (Synthetic peptide; also called peptide PRE 6) [PRE 6] for me?
Output: 13.2

Task: Given Ac-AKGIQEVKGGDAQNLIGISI-NH2 (Synthetic peptide; also called peptide PRE 3) [PRE 3] , state its recorded binding capacity (%).
Output: 56

Task: # lookup: binding capacity (%) of Ac-ISIGILQNADK-NH2 (Synthetic peptide (retro form of PRE 4); also called peptide PRE 7) [PRE 7]
Output: 0
